Cited source: paper PMC8032668

Listing: pEC50 of selected compounds
# assay target: eIF4E (Mus musculus, UniProt P63073)
# Construct: Murine eIF4E (residues 28–217) was expressed in E. coli; made in house; host or cells: E. coli
# Sequence (P63073 28-217): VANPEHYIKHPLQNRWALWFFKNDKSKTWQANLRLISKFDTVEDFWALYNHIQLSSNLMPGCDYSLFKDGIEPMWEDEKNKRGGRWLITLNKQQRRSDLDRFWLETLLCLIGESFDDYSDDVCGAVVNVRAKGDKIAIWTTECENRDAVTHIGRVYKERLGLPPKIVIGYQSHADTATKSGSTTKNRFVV
# procedure summary: FA competition (probe-displacement) assay for eIF4E
# Type: binding, Murine
# settings: Probe 1a: 10 nM probe 1a and 100 nM eIF4E; HEPES pH 7.2
# Experimental: Inclusion bodies containing eIF4E were solubilized in 50 mM HEPES/KOH (pH 7.2) buffer containing 10% glycerol, 6 M guanidine hydrochloride and 2 mM DTT. […] In competitive measurements, a constant concentration of the protein and fluorescent probe and increasing concentration of the test ligand were used. […] FA signals were recorded for 20 min with 2 min intervals.
Note: pEC50 values are expressed as the negative base-10 logarithm of concentration in M.

- compound: "C[n+]1cn([C@@H]2O[C@H](COP(=O)([O-])OP(O)(=S)OP(=O)(O)OC[C@H]3O[C@@H](n4cnc5c(=O)[nH]c(N)nc54)[C@H](O)[C@@H]3O)[C@@H](O)[C@H]2O)c2nc(N)[nH]c(=O)c21 (single isomer, unassigned) [m^7GppSpG D2]"
  assay target: "eIF4E (Mus musculus, UniProt P63073)"
  pEC50: 6.42
- compound: "Cn1c[n+]([C@@H]2O[C@H](COP(=O)(O)OP(=O)([O-])OP(=O)(O)OC[C@H]3O[C@@H](n4cnc5c(=O)[nH]c(N)nc54)[C@H](O)[C@@H]3O)[C@@H](O)[C@H]2O)c2nc(N)[nH]c(=O)c21"
  assay target: "eIF4E (Mus musculus, UniProt P63073)"
  pEC50: 6.38
- compound: "CO[C@@H]1[C@H](O)[C@@H](COP([O-])(=S)OP(=O)(O)OP(=O)(O)OP(=O)(O)OC[C@H]2O[C@@H](n3cnc4c(=O)[nH]c(N)nc43)[C@H](O)[C@@H]2O)O[C@H]1n1c[n+](C)c2c(=O)[nH]c(N)nc21 (single isomer, unassigned) [m^7′-OGpSpppG D2, m^7,2′-OGpSpppG D2]"
  assay target: "eIF4E (Mus musculus, UniProt P63073)"
  pEC50: 7.13

# assay system eIF4E (Mus musculus, UniProt P63073): give pEC50 of C[n+]1cn([C@@H]2O[C@H](COP(=O)([O-])OP(O)(=S)OP(=O)(O)OC[C@H]3O[C@@H](n4cnc5c(=O)[nH]c(N)nc54)[C@H](O)[C@@H]3O)[C@@H](O)[C@H]2O)c2nc(N)[nH]c(=O)c21 (single isomer, unassigned) [m^7GppSpG D1]
6.74

# assay system eIF4E (Mus musculus, UniProt P63073): give pEC50 of Cn1c[n+]([C@@H]2O[C@H](COP(=O)(O)OP(=O)([O-])O)[C@@H](O)[C@H]2O)c2nc(N)[nH]c(=O)c21
6.69

# assay system eIF4E (Mus musculus, UniProt P63073): give pEC50 of CO[C@@H]1[C@H](O)[C@@H](COP([O-])(=S)OP(=O)(O)OP(=O)(O)OP(=O)(O)OC[C@H]2O[C@@H](n3cnc4c(=O)[nH]c(N)nc43)[C@H](O)[C@@H]2O)O[C@H]1n1c[n+](C)c2c(=O)[nH]c(N)nc21 (single isomer, unassigned) [m^7′-OGpSpppG D1, m^7,2′-OGpSpppG D1]
7.17
